# measurement-description: Binding affinity to Mg2+ at 100 uM in HEPES buffer of pH 7.2 by spectrophotometry
quantity: log10 Ka (log10 of the value in ×10⁵ /M)
Field: value | Transform: log10 | Quantity: Ka | Unit: ×10⁵ /M

Query block: Given O=c1c2ccccc2n(CC(O)CN2CCOCC2)c2c(Cl)cccc12 (stereo unspecified) , state its recorded log10 Ka.
Result block: 1.23

Query block: Given CC(C)N(CC(O)Cn1c2ccccc2c(=O)c2cccc(C(=O)O)c21)C(C)C (stereo unspecified) , state its recorded log10 Ka.
Result block: 0.30

Query block: Given CCN(CC)CC(O)Cn1c2ccccc2c(=O)c2cccc(Cl)c21 (stereo unspecified) , state its recorded log10 Ka.
Result block: -0.41

Query block: Given O=C(O)c1cccc2c(=O)c3ccccc3n(CC(O)CN3CCCC3)c12 (stereo unspecified) , state its recorded log10 Ka.
Result block: 0.18

Query block: Given O=c1c2ccccc2n(CC(O)CN2CCCCC2)c2c(Cl)cccc12 (stereo unspecified) , state its recorded log10 Ka.
Result block: 0.17

Query block: Given CCN(CC)CC(O)Cn1c2ccccc2c(=O)c2cccc(C(=O)O)c21 (stereo unspecified) , state its recorded log10 Ka.
Result block: 0.89

Query block: Given O=c1c2ccccc2n(CC(O)CN2CCC(N3CCCCC3)CC2)c2c(Cl)cccc12 (stereo unspecified) , state its recorded log10 Ka.
Result block: 1.27

Query block: Given O=C(O)c1cccc2c(=O)c3ccccc3n(CC(O)CN3CCOCC3)c12 (stereo unspecified) , state its recorded log10 Ka.
Result block: 0.58

Query block: Given O=C(O)c1cccc2c(=O)c3ccccc3n(CC(O)CN3CCCCC3)c12 (stereo unspecified) , state its recorded log10 Ka.
Result block: 1.29

Query block: Given O=c1c2ccccc2n(CC(O)CN2CCCC2)c2c(Cl)cccc12 (stereo unspecified) , state its recorded log10 Ka.
Result block: -0.02

Query block: Given CC(C)N(CC(O)Cn1c2ccccc2c(=O)c2cccc(Cl)c21)C(C)C (stereo unspecified) , state its recorded log10 Ka.
Result block: 0.34

---

# measurement-description: Binding affinity to P-gp at 0.05 uM after 30 mins by spectrophotometry
quantity: RBA
// no unit, no text: just the number

Query block: Given COc1ccc(CCN(C)CCCC(C#N)(c2ccc(OC)c(OC)c2)C(C)C)cc1OC (stereo not given) , state its recorded RBA.
Result block: 1.11

Query block: Given O=C(O)c1cccc2c(=O)c3ccccc3n(CC(O)CN3CCCCC3)c12 (stereo not given) , state its recorded RBA.
Result block: 1.57

Query block: Given CC(=O)[C@H]1CC[C@H]2[C@@H]3CCC4=CC(=O)CC[C@]4(C)[C@H]3CC[C@]12C , state its recorded RBA.
Result block: 1

Query block: Given CC(C)N(CC(O)Cn1c2ccccc2c(=O)c2cccc(C(=O)O)c21)C(C)C (stereo not given) , state its recorded RBA.
Result block: 1.53

Query block: Given O=C(O)c1cccc2c(=O)c3ccccc3n(CC(O)CN3CCCC3)c12 (stereo not given) , state its recorded RBA.
Result block: 1.6

---

# Tested on: ATP
# measurement-description: Binding affinity to ATP at 50 uM in HEPES buffer of pH 7.2 by spectrophotometry
Active and inactive are the calls of the source. The calls are words filed in the database; no cut-off is given here.
quantity: Ka

compound: CC(C)N(CC(O)Cn1c2ccccc2c(=O)c2cccc(C(=O)O)c21)C(C)C (stereo not given)
Ka: inactive
--
compound: O=C(O)c1cccc2c(=O)c3ccccc3n(CC(O)CN3CCOCC3)c12 (stereo not given)
Ka: inactive
--
compound: O=C(O)c1cccc2c(=O)c3ccccc3n(CC(O)CN3CCCC3)c12 (stereo not given)
Ka: inactive
--
compound: O=c1c2ccccc2n(CC(O)CN2CCCCC2)c2c(Cl)cccc12 (stereo not given)
Ka: 5 ×10⁵ /M

Now, please, on to the next compound.
Query block: Given CCN(CC)CC(O)Cn1c2ccccc2c(=O)c2cccc(Cl)c21 (stereo not given) , state its recorded Ka.
Result block: 7.9 ×10⁵ /M

Where do these numbers come from? They come from ChEMBL document CHEMBL1166014.
